pKi: −log10 of the molar value.
Quick record: pKi, Carbonic anhydrase 1 (Homo sapiens).
READOUT TYPE: pKi

[[record]]
structure_smiles = "NS(=O)(=O)c1nnc(NC(=O)CN(CCN(CC(=O)O)c2ccccc2O)c2ccccc2O)s1"
target_or_test_system = "Carbonic anhydrase 1 (Homo sapiens)"
readout_type = "pKi"
recorded_number = 6.61


a. NS(=O)(=O)c1cc(S(N)(=O)=O)c(NC(=O)CN(CCN(CC(=O)O)CC(=O)O)CC(=O)O)c(Cl)c1Cl
b. NS(=O)(=O)c1cccc(NC(=O)CN(CCOCCOCCN(CC(=O)O)CC(=O)Nc2cccc(S(N)(=O)=O)c2)CC(=O)O)c1
c. NS(=O)(=O)c1nnc(NC(=O)CNCC(=O)O)s1
Ordering: ascending pKi. To answer, write out the labels according to the requested order.
b, c, a
(b: 5.21, c: 6.38, a: 6.89)

---

READOUT TYPE: Kin x10e3 (hr-1)

[[record]]
structure_smiles = "Cn1nc(S(N)(=O)=O)s/c1=N/C(=O)CN(CCN(CC(=O)O)CC(=O)O)CC(=O)O"
readout_type = "Kin x10e3"
recorded_number = 4.8

[[record]]
structure_smiles = "NS(=O)(=O)c1ccc(NC(=O)CN(CCN(CCN(CC(=O)O)CC(=O)Nc2ccc(S(N)(=O)=O)cc2)CC(=O)O)CC(=O)O)cc1"
readout_type = "Kin x10e3"
recorded_number = 3.6

[[record]]
structure_smiles = "NS(=O)(=O)c1cc(S(N)(=O)=O)c(NC(=O)CN(CCN(CC(=O)O)CC(=O)Nc2c(S(N)(=O)=O)cc(S(N)(=O)=O)c(Cl)c2Cl)CC(=O)O)c(Cl)c1Cl"
readout_type = "Kin x10e3"
recorded_number = 3.6

[[record]]
structure_smiles = "NS(=O)(=O)c1ccc(NC(=O)CN(CCN(CCN(CC(=O)O)CC(=O)O)CC(=O)O)CC(=O)O)cc1"
readout_type = "Kin x10e3"
recorded_number = 3.8

[[record]]
structure_smiles = "NS(=O)(=O)c1nnc(NC(=O)CCNC(=O)CN(CCN(CC(=O)O)CC(=O)NCCC(=O)Nc2nnc(S(N)(=O)=O)s2)CC(=O)O)s1"
readout_type = "Kin x10e3"
recorded_number = 3


P. NS(=O)(=O)c1nnc(NC(=O)CCNC(=O)CNCC(=O)O)s1
Q. NS(=O)(=O)c1nnc(NC(=O)CCNC(=O)CN(CCN(CC(=O)O)c2ccccc2O)c2ccccc2O)s1
Which one would you say has the larger Kin x10e3 value: P , or Q ? Give the label under which the chosen entry appears.
Q

---

READOUT TYPE: Kin x10e3 (hr-1)

[[record]]
structure_smiles = "Cn1nc(S(N)(=O)=O)s/c1=N/C(=O)CN(CCN(CC(=O)O)CC(=O)O)CC(=O)O"
recorded_number = 9.5


P. NS(=O)(=O)c1cc(S(N)(=O)=O)c(NC(=O)CN(CCN(CC(=O)O)CC(=O)Nc2c(S(N)(=O)=O)cc(S(N)(=O)=O)c(Cl)c2Cl)CC(=O)O)c(Cl)c1Cl
Q. NS(=O)(=O)c1ccc(NC(=O)CN(CCN(CCN(CC(=O)O)CC(=O)Nc2ccc(S(N)(=O)=O)cc2)CC(=O)O)CC(=O)O)cc1
R. NS(=O)(=O)c1nnc(NC(=O)CCNC(=O)CN(CCN(CC(=O)O)c2ccccc2O)c2ccccc2O)s1
hey, can you rank those molecules up there by Kin x10e3? biggest number first please To answer, write out the labels according to the requested order.
R, P, Q

1. Cn1nc(S(N)(=O)=O)s/c1=N/C(=O)CN(CCN(CC(=O)O)CC(=O)/N=c1/sc(S(N)(=O)=O)nn1C)CC(=O)O
2. NS(=O)(=O)c1nnc(NC(=O)CN(CCN(CCN(CC(=O)O)CC(=O)O)CC(=O)O)CC(=O)O)s1
Field: lower recorded Kin x10e3 (choose 1 or 2 ) Give the label under which the chosen entry appears.
1

---

READOUT TYPE: Kin x10e3 (hr-1)

[[record]]
molecule = "NS(=O)(=O)C1N=NC(NC(=O)CN(CCN(CCN(CC(=O)O)CC(=O)NC2N=NC(S(N)(=O)=O)S2)CC(=O)O)CC(=O)O)S1 (stereo not given)"
readout_type = "Kin x10e3"
recorded_number = 6.2

[[record]]
molecule = "NS(=O)(=O)c1ccc(NC(=O)CN(CCOCCOCCN(CC(=O)O)CC(=O)O)CC(=O)O)c(Br)c1"
readout_type = "Kin x10e3"
recorded_number = 6.5

[[record]]
molecule = "NS(=O)(=O)c1nnc(NC(=O)CN(CCOCCOCCN(CC(=O)O)CC(=O)O)CC(=O)O)s1"
readout_type = "Kin x10e3"
recorded_number = 8.4

[[record]]
molecule = "NS(=O)(=O)c1nc2ccc(OC(=O)CNCCNCC(=O)O)cc2s1"
readout_type = "Kin x10e3"
recorded_number = 8.4

[[record]]
molecule = "NS(=O)(=O)c1ccc(NC(=O)CN(CCOCCOCCN(CC(=O)O)CC(=O)Nc2ccc(S(N)(=O)=O)cc2F)CC(=O)O)c(F)c1"
readout_type = "Kin x10e3"
recorded_number = 8.3


---

TARGET OR TEST SYSTEM: Carbonic anhydrase 1 (Homo sapiens)
Sequence (P00915 whole entry): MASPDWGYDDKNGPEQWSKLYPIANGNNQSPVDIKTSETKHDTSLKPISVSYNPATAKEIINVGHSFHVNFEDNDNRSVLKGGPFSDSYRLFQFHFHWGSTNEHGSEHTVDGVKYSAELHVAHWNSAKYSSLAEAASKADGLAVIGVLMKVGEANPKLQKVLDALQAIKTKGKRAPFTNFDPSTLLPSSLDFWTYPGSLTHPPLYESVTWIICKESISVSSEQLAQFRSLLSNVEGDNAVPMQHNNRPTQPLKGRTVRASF
READOUT TYPE: Ki (nM)

Guide cases for Ki, answers given:
[[record]]
structure_smiles = "NS(=O)(=O)c1ccc(NC(=O)CN(CCN(CC(=O)O)CC(=O)Nc2ccc(S(N)(=O)=O)cc2Br)CC(=O)O)c(Br)c1"
unit_name = "nM"
recorded_number = 105

[[record]]
structure_smiles = "NS(=O)(=O)c1nc2ccc(OCCOC(=O)CN(CCOCCOCCN(CC(=O)O)CC(=O)OCCOc3ccc4nc(S(N)(=O)=O)sc4c3)CC(=O)O)cc2s1"
unit_name = "nM"
recorded_number = 15

[[record]]
structure_smiles = "NS(=O)(=O)c1ccc(NC(=O)CN(CCN(CC(=O)O)CC(=O)Nc2ccc(S(N)(=O)=O)cc2Cl)CC(=O)O)c(Cl)c1"
unit_name = "nM"
recorded_number = 225


P. NS(=O)(=O)c1ccc(NC(=O)CN(CCN(CC(=O)O)CC(=O)O)CC(=O)O)c(Br)c1
Q. NS(=O)(=O)c1ccc(CCNC(=O)CN(CCN(CC(=O)O)c2ccccc2O)c2ccccc2O)cc1
Which one would you say has the larger Ki value: P , or Q ? Give the label under which the chosen entry appears.
Q
(Q: 1050 nM, P: 130 nM)

I. NS(=O)(=O)c1ccc(NC(=O)CN(CCN(CC(=O)O)c2ccccc2O)c2ccccc2O)cc1
II. NS(=O)(=O)c1nc2ccc(NC(=O)CNCC(=O)O)cc2s1
Which one would you say has the larger Ki value: I , or II ? Give the label under which the chosen entry appears.
I
(I: 11500 nM, II: 65 nM)

a. NS(=O)(=O)c1ccc(NNC(=O)CN(CCN(CC(=O)O)CC(=O)NNc2ccc(S(N)(=O)=O)cc2)CC(=O)O)cc1
b. NS(=O)(=O)c1ccccc1NC(=O)CN(CCN(CC(=O)O)CC(=O)Nc1ccccc1S(N)(=O)=O)CC(=O)O
Field: lower recorded Ki (choose a or b ) Give the label under which the chosen entry appears.
b

I. NS(=O)(=O)c1ccc(CNC(=O)CN(CCN(CC(=O)O)c2ccccc2O)c2ccccc2O)cc1
II. NS(=O)(=O)c1nnc(NC(=O)CCNC(=O)CNCCNCC(=O)O)s1
Which one would you say has the larger Ki value: I , or II ? Give the label under which the chosen entry appears.
I
(I: 1200 nM, II: 240 nM)

I. NS(=O)(=O)c1nc2ccc(NC(=O)CN(CC(=O)O)CC(=O)O)cc2s1
II. Cn1nc(S(N)(=O)=O)s/c1=N/C(=O)CN(CCOCCOCCN(CC(=O)O)CC(=O)/N=c1/sc(S(N)(=O)=O)nn1C)CC(=O)O
Which one would you say has the larger Ki value: I , or II ? Give the label under which the chosen entry appears.
I

I. NS(=O)(=O)c1nnc(NC(=O)CN(CCOCCOCCN(CC(=O)O)CC(=O)O)CC(=O)O)s1
II. NS(=O)(=O)c1nc2ccc(OCCOC(=O)CN(CCN(CC(=O)O)CC(=O)OCCOc3ccc4nc(S(N)(=O)=O)sc4c3)CC(=O)O)cc2s1
Field: lower recorded Ki (choose I or II ) Give the label under which the chosen entry appears.
II

a. NS(=O)(=O)c1ccc(NC(=O)CN(CCOCCOCCN(CC(=O)O)CC(=O)O)CC(=O)O)c(I)c1
b. NS(=O)(=O)c1nnc(NC(=O)CNCCNCC(=O)O)s1
Which one would you say has the larger Ki value: a , or b ? Give the label under which the chosen entry appears.
b
(b: 250 nM, a: 76 nM)

---

Target chain: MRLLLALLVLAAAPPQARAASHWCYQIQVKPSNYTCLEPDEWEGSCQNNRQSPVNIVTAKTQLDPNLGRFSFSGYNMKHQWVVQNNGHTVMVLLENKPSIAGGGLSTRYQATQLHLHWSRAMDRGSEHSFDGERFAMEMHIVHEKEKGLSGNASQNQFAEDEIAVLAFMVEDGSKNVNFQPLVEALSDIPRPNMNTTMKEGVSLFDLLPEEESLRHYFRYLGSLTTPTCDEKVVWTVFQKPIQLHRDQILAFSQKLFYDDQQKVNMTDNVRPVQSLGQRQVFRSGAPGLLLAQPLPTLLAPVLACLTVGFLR
READOUT TYPE: Ki (nM)

Guide cases for Ki, answers given:
[[record]]
structure_smiles = "NS(=O)(=O)c1nnc(NC(=O)CN(CCOCCOCCN(CC(=O)O)CC(=O)Nc2nnc(S(N)(=O)=O)s2)CC(=O)O)s1"
recorded_number = 4

[[record]]
structure_smiles = "NS(=O)(=O)c1nnc(NC(=O)CN(CCN(CC(=O)O)CC(=O)Nc2nnc(S(N)(=O)=O)s2)CC(=O)O)s1"
recorded_number = 5

[[record]]
structure_smiles = "NS(=O)(=O)c1ccc(NC(=O)CN(CCOCCOCCN(CC(=O)O)CC(=O)Nc2ccc(S(N)(=O)=O)cc2I)CC(=O)O)c(I)c1"
recorded_number = 20


I. NS(=O)(=O)c1ccc(NC(=O)CN(CCOCCOCCN(CC(=O)O)CC(=O)O)CC(=O)O)c(Br)c1
II. NS(=O)(=O)c1ccc(NC(=O)CNCCNCC(=O)O)cc1
III. NS(=O)(=O)c1ccc(CCNC(=O)CN(CCN(CC(=O)O)CC(=O)NCCc2ccc(S(N)(=O)=O)cc2)CC(=O)O)cc1
IV. NS(=O)(=O)c1nc2ccc(OC(=O)CN(CCN(CCN(CC(=O)O)CC(=O)O)CC(=O)O)CC(=O)O)cc2s1
V. NS(=O)(=O)c1ccc(CCNC(=O)CN(CCOCCOCCN(CC(=O)O)CC(=O)NCCc2ccc(S(N)(=O)=O)cc2)CC(=O)O)cc1
hey, can you rank those compounds up there by Ki? biggest number first please To answer, write out the labels according to the requested order.
II, III, I, V, IV
(II: 365 nM, III: 54 nM, I: 32 nM, V: 20 nM, IV: 6 nM)
